- Tested on: UO-31
- EXPERIMENT_DESCRIPTION: NCI tumour cell line growth inhibition, 48 h
Active and inactive are the calls of the source. Rule as the data show it: active = GI50 up to about 1.1 µM and inactive = higher.
Write down one outcome, taken from yes (active), no (inactive)

**Q:** Hi, do you know how O=c1c(O)c(-c2ccc(O)cc2O)oc2cc(O)cc(O)c12 [MORIN] came out in this test?
**A:** no

**Q:** Hi, do you know how "CCOC(=O)c1c(O)cn2c1[nH]c1cccc3cccc2c31" came out in this test?
**A:** no

**Q:** Hi, do you know how "O=C(Cc1csc2[n+]1C(=O)/C(=C/c1ccc(Cl)cc1)S2)Nc1ccccc1" came out in this test?
**A:** no

**Q:** Hi, do you know how Cc1cc(Cl)ccc1/N=C1/NC(=O)C(CC(=O)Nc2cccc(C)c2C)S1 (stereo not drawn) came out in this test?
**A:** no

**Q:** Hi, do you know how COC(=O)CNC(=O)C(Cc1ccccc1)NC(=O)c1ccc(-c2ccc(Cl)cc2Cl)o1 (stereo not drawn) came out in this test?
**A:** no

**Q:** Hi, do you know how COC(=O)C12CCC(C(F)(F)C1=O)C2(C)C (stereo not drawn) came out in this test?
**A:** no

**Q:** Hi, do you know how "CCCCC/C=C\C=C1\C(=O)C=C[C@@H]1C/C=C\CCCC(=O)O" came out in this test?
**A:** no

**Q:** Hi, do you know how "O=C(NCCNCCCNC(=O)c1cc(-c2ccccc2)nc2ccccc12)c1cccc(OCc2ccccc2)c1OCc1ccccc1" came out in this test?
**A:** no

**Q:** Hi, do you know how CCOC(=O)CC(c1ccccc1)C(C)(C(=O)OCC)C(=O)OCC (stereo not drawn) came out in this test?
**A:** no

**Q:** Hi, do you know how "COC(=O)c1ccc(S)c(S(=O)(=O)Nc2nc(N)n[nH]2)c1" came out in this test?
**A:** no

**Q:** Hi, do you know how "O=c1c2sc3ccccc3sc=2c(=O)c2c(Cl)c(Cl)c(Cl)c(Cl)c12" came out in this test?
**A:** no

**Q:** Hi, do you know how Cc1c(CNc2ccc(C(=O)NC(CCCNC(=O)c3ccccc3C(=O)O)C(=O)O)cc2)cnc2nc(N)nc(N)c12 (stereo not drawn) came out in this test?
**A:** yes

**Q:** Hi, do you know how "COc1ccc(NC(=O)CC(=O)n2nc(C)c(/N=N/c3ccccc3C(=O)O)c2C)cc1" came out in this test?
**A:** no

**Q:** Hi, do you know how "O=C(Cn1cc(Br)c(=O)[nH]c1=O)c1ccc(-c2ccccc2)cc1" came out in this test?
**A:** no

**Q:** Hi, do you know how CC(=O)NC(CCCOC(C)=O)C(=O)NC(CCCOC(C)=O)C(=O)NC(CCCOC(C)=O)C(=O)NC(Cc1ccc([N+](=O)[O-])cc1)C(=O)NCC(=O)OCc1ccccc1 (stereo not drawn) came out in this test?
**A:** no

**Q:** Hi, do you know how CC(C(=O)C(C)O[Si](c1ccccc1)(c1ccccc1)C(C)(C)C)=P(c1ccccc1)(c1ccccc1)c1ccccc1 (stereo not drawn) came out in this test?
**A:** no

**Q:** Hi, do you know how O=C(O)C1C(Br)(c2ccccc2)C1(Br)c1ccccc1 (stereo not drawn) came out in this test?
**A:** no

**Q:** Hi, do you know how "Cc1ccc(N2C(=O)/C(=C3\Sc4c(nc(C)[nH]c4=O)N3c3ccccc3)SC2=S)cc1" came out in this test?
**A:** no

Values compiled from ChEMBL document CHEMBL1201862.
